Recorded values, source patent US20160264649A1.

- testedSystem: HIV-1 AC10 Env (HIV-1)
- experimentalDetails: cell-based or functional assay

binder | IC50, TZM-bl pseudovirus neutralization
1489_I13 (PG16) (TCN-120) (antibody, V domains shown) VH: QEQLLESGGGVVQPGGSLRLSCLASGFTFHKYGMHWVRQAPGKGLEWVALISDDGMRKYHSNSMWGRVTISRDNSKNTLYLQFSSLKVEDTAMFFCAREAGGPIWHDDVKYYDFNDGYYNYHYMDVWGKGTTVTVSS VL: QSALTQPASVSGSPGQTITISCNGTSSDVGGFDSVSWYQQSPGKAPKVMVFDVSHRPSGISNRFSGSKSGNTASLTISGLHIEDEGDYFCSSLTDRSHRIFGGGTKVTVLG | < 0.01 µg/mL
1503_H05 (PG16) (TCN-119) (antibody, V domains shown) VH: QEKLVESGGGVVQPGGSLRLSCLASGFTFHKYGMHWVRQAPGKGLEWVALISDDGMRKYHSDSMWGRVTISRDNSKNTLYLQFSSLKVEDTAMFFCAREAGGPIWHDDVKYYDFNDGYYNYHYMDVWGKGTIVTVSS VL: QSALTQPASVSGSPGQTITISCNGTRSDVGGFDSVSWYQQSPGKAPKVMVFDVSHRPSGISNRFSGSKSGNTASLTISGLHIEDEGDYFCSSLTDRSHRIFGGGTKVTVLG | < 0.01 µg/mL
1456_A12 (PG16) (TCN-117) (antibody, V domains shown) VH: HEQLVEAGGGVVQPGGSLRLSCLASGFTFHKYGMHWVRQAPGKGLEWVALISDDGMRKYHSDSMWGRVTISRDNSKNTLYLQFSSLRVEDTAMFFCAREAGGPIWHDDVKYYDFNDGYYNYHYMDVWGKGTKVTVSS VL: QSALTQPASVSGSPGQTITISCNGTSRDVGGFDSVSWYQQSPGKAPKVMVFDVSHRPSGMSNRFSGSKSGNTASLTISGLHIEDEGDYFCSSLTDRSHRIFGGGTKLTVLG | < 0.01 µg/mL
